All values here come from ChEMBL document CHEMBL1148330.

Species on record: Rattus norvegicus
Measurement Description: Selectivity ratio of binding affinities between kappa opioid receptors and mu opioid receptors in rat brain membranes
Type: cell membranes
Label label 1 when Selectivity ratio >= 10; otherwise label 0.

[
  {
    "Compound": "CCCCOc1cccc2c1[C@]13CCN(CC4CC4)[C@H](C2)[C@]1(OC)CCC(=O)C3",
    "Class Assignment": "label 1"
  },
  {
    "Compound": "O=C1CC[C@@]2(OCCCc3ccccc3)[C@H]3Cc4cccc5c4[C@@]2(CCN3CC2CC2)C1O5 (some centres undefined)",
    "Class Assignment": "label 1"
  },
  {
    "Compound": "CO[C@@]12CCC(=O)C[C@@]13CCN(CC1CC1)[C@@H]2Cc1cccc(OCCCc2ccccc2)c13",
    "Class Assignment": "label 0"
  },
  {
    "Compound": "COc1cccc2c1[C@]13CCN(CC4CC4)[C@H](C2)[C@]1(OCCCc1ccccc1)CCC(=O)C3",
    "Class Assignment": "label 1"
  },
  {
    "Compound": "CO[C@@]12CCC(=O)C[C@@]13CCN(CC1CC1)[C@@H]2Cc1cccc(OCc2ccccc2)c13",
    "Class Assignment": "label 0"
  }
]

Alright, here's another compound for you.
Selectivity ratio >= 10 for `O=C1CC[C@@]2(OCCCc3ccccc3)[C@H]3Cc4cccc(O)c4[C@@]2(CCN3CC2CC2)C1` ? label 1
